B1: KRT18 (parent)
chain: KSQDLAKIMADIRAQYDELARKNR

Variants of: B1
Assay: protein stability index of a GFP-peptide fusion (GPS, HEK-293T) (PSI 1-6); higher = more stable;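 note: lentivirally expressed fusions sorted by FACS into six bins by GFP to DsRed ratio, PSI derived from sequencing read proportions per bin multiplied by bin number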
Details: c terminus: a fixed tail appended
For each record, write down the corresponding protein stability index.
Answer as a number with no unit attached.

Query: Look at this variant and give its reported protein stability index. R21Y
Response: 2.65

Query: What does the data say about its protein stability index? Entry: R21N
Response: 2.96

Query: Query (variant): K22W ; field requested: protein stability index
Response: 1.88

Query: Need protein stability index of A14V , thanks.
Response: 2.68

Query: Please give the measured protein stability index for this variant: R24I
Response: 2.1

Query: Which protein stability index value is on record for I8F ?
Response: 1.64

Query: So what does the record say about protein stability index for D4T ?
Response: 1.76

Query: # input variant: I8V ; wanted: its protein stability index
Response: 2.99

Query: Reported protein stability index, variant L5D : ____
Response: 4.16

Query: // query protein stability index value for entry K1P
Response: 3.03

Query: Report protein stability index for R24Y please.
Response: 2.01

Query: For the variant shown here, A20C , give the reported protein stability index.
Response: 2.38

Query: Requested read-out: protein stability index. Entry: A20K
Response: 3.19

Query: Fill in: protein stability index of Y16T is ___
Response: 3.9

Query: # input variant: A14C ; wanted: its protein stability index
Response: 3.05

Query: Fill in the blank: the reported protein stability index of K1V is ____.
Response: 2.71

Query: Name the recorded protein stability index for D11T .
Response: 2.02

Query: Field request: protein stability index | item: Q15R
Response: 2.6

Query: Find the recorded protein stability index belonging to I8D and report it.
Response: 4.13

Query: Could you tell me which protein stability index is on file for K1H ?
Response: 2.58

Query: Quick one: protein stability index for D17M ?
Response: 1.51

Query: So what does the record say about protein stability index for D11M ?
Response: 2.02

Query: Which value of protein stability index has been reported for S2K in the records?
Response: 3.06

Query: Any idea what protein stability index was measured for Y16N ?
Response: 4.13

Query: Return reported protein stability index; argument: D4E
Response: 2.5

Query: Reported protein stability index, variant E18W : ____
Response: 1.96

Query: Please give the measured protein stability index for this variant: A10Y
Response: 2.51
